Entry source: PubChem BioAssay AID1159580

Assign normalized growth to each entry below.
measurement-protocol: chemical genetic growth profiling, strain panel (AID 1159580);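 note: tested at 20 µM; growth read once vehicle control cultures reached saturation at 30 °C; 1 = growth at the plate median or of vehicle wells; lower values mean less growth of the strain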
condition-summary: S. cerevisiae deletion strains, growth OD, locus YIR030C, strain dcg1, stronger effect = lower value
Out of some 5,500 compounds screened, about 2,000 (36%) were called active. About 18% were inconclusive and are not listed. This is one part of the list.

Here is how some molecules turned out for normalized growth.
Incoming: Fill blank: measured normalized growth of the molecule "O=C1C[C@@H](c2ccccc2)Oc2cc(O)cc(O)c21" is ____.
Outgoing: 0.942 (inactive)

Incoming: Again, but for "C/C=C(/C(=C/C)c1ccc(O)cc1)c1ccc(O)cc1"
Outgoing: 0.958 (inactive)

Incoming: Again, but for COc1cc(OC)c2c(c1)OC(c1ccc(OC)c(OC)c1)C(O)C2 (stereo not given)
Outgoing: 1.02 (inactive)

Required: normalized growth, one value per molecule below.
1. COc1ccc2c(c1)OC[C@@H](Cc1ccc(OC)c(OC)c1)[C@@H]2O
2. O=c1ccc2cc(O)c(O)cc2o1
3. COC(=O)c1c(Cl)c(Cl)c(C(=O)OC)c(Cl)c1Cl
4. COc1c(CC=C(C)C)c2c(c3oc(=O)c(-c4ccc(OC(C)=O)cc4)c(OC(C)=O)c13)C=CC(C)(C)O2
5. NC[C@@H]1O[C@H](O[C@@H]2[C@@H](CO)OC(O[C@@H]3[C@@H](O)[C@H](N)C[C@H](N)[C@H]3OC3O[C@H](CN)[C@@H](O)[C@H](O)[C@H]3N)[C@@H]2O)[C@H](N)[C@@H](O)[C@@H]1O (stereo not given in full)
6. CCCCOc1ccc(C(=O)CCN2CCCCC2)cc1

Outgoing:
1. 0.986 (inactive)
2. 0.996 (inactive)
3. 1.01 (inactive)
4. 0.996 (inactive)
5. 1.01 (inactive)
6. 0.486 (active)

---

measurement-protocol: chemical genetic growth profiling, strain panel (AID 1159580);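 note: tested at 20 µM; growth read once vehicle control cultures reached saturation at 30 °C; 1 = growth at the plate median or of vehicle wells; lower values mean less growth of the strain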
condition-summary: S. cerevisiae deletion strains, growth OD, locus YAL040C, strain CLN3, stronger effect = lower value
Out of some 5,500 compounds screened, about 2,000 (36%) were called active. About 18% were inconclusive and are not listed. The list shows a part of the results.
observed-property: normalized growth
Answers are plain numbers.

Here is how some compounds turned out for normalized growth.
Incoming: Fill blank: measured normalized growth of the compound "Cc1nc(N=Nc2ccc(C(=O)O)cc2)c(COP(=O)(O)O)c(C=O)c1O" is ____.
Outgoing: 0.978

Incoming: Again, but for "CCCc1c(OCCCOc2ccc(OCC(=O)O)cc2)ccc(C(C)=O)c1O"
Outgoing: 0.942

Next compound, normalized growth to be filled in.
Incoming: Fill blank: measured normalized growth of the compound COc1cc(C(O)C(=O)O)ccc1O (stereo not drawn) is ____.
Outgoing: 0.984

---

measurement-protocol: chemical genetic growth profiling, strain panel (AID 1159580);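 note: tested at 20 µM; growth read once vehicle control cultures reached saturation at 30 °C; 1 = growth at the plate median or of vehicle wells; lower values mean less growth of the strain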
condition-summary: S. cerevisiae deletion strains, growth OD, locus YLR027C, strain aat2, stronger effect = lower value
The campaign covered roughly 5,500 compounds. About 2,000 (36%) were called active. Not shown: some 18% with an inconclusive outcome. Some of the results follow.
observed-property: normalized growth
One number for each entry.

Incoming: Fill blank: measured normalized growth of the compound "Cc1c(N(C)C)c(=O)n(-c2ccccc2)n1C" is ____.
Outgoing: 0.97

Incoming: Again, but for "CCCCCCCCCCCCC[N+](C)(C)Cc1ccccc1"
Outgoing: 0.0632

Incoming: Again, but for "N#Cc1c(Cl)c(Cl)c(Cl)c(C#N)c1Cl"
Outgoing: 0.072

Incoming: Again, but for "CN=C(NC#N)NCCSCc1nc[nH]c1C"
Outgoing: 1.01

Incoming: Again, but for "CCOC(=O)c1ncn2c1CN(C)C(=O)c1cc(F)ccc1-2"
Outgoing: 1.02

Next compound, normalized growth to be filled in.
Incoming: Fill blank: measured normalized growth of the compound "NC(N)=NOCC[C@H](N)C(=O)O" is ____.
Outgoing: 1.01
